B1: H2-Kb / Ed23 (parent complex)
chain 1: QQKVQQSPESLTVSEGAMASLNCTFSDRSSDNFRWYRQHSGKGLEVLVSIFSDGEKEEGSFTAHLNRASLHVFLHIREPQPSDSALYLCAVRGFWTNKVVFGTGTRLQVLP
chain 2: AQTIHQWPVAEIKAVGSPLSLGCTIKGKSSPNLYWYWQATGGTLQQLFYSITVGQVESVVQLNLSASRPKDDQFILSTEKLLLSHSGFYLCAWSPRQSSYEQYFGPGTRLTVL
chain 3: not shown
chain 4: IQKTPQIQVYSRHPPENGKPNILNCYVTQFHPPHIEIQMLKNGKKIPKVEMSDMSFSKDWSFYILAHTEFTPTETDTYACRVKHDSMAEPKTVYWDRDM
chain 5: SIINFEKL

- Variants of: B1
- test-name: % of reporter cells activated (NFAT-GFP), raw; further: test concentration or dose not given here
quantity: ratio to parent

[[record]]
residue_change = "chain 5 F5I"
quantity = "ratio to parent"
data_value = 1.25

[[record]]
residue_change = "chain 5 K7R"
quantity = "ratio to parent"
data_value = 1.42

[[record]]
residue_change = "chain 5 E6Y"
quantity = "ratio to parent"
data_value = 0.588

[[record]]
residue_change = "chain 5 L8K"
quantity = "ratio to parent"
data_value = 1.23

[[record]]
residue_change = "chain 5 K7C"
quantity = "ratio to parent"
data_value = 0.919

[[record]]
residue_change = "chain 5 S1Y"
quantity = "ratio to parent"
data_value = 0.886

[[record]]
residue_change = "chain 5 I2M"
quantity = "ratio to parent"
data_value = 1.46

[[record]]
residue_change = "chain 5 S1P"
quantity = "ratio to parent"
data_value = 1.46

[[record]]
residue_change = "chain 5 I2G"
quantity = "ratio to parent"
data_value = 0.952

[[record]]
residue_change = "chain 5 L8F"
quantity = "ratio to parent"
data_value = 1.13

[[record]]
residue_change = "chain 5 L8Q"
quantity = "ratio to parent"
data_value = 1.21

[[record]]
residue_change = "chain 5 S1K"
quantity = "ratio to parent"
data_value = 0.558

[[record]]
residue_change = "chain 5 L8M"
quantity = "ratio to parent"
data_value = 0.785

[[record]]
residue_change = "chain 5 I3Q"
quantity = "ratio to parent"
data_value = 1.22

[[record]]
residue_change = "chain 5 N4R"
quantity = "ratio to parent"
data_value = 1.22

[[record]]
residue_change = "chain 5 L8C"
quantity = "ratio to parent"
data_value = 1.06

[[record]]
residue_change = "chain 5 S1V"
quantity = "ratio to parent"
data_value = 1.12

[[record]]
residue_change = "chain 5 K7H"
quantity = "ratio to parent"
data_value = 0.333

[[record]]
residue_change = "chain 5 S1Q"
quantity = "ratio to parent"
data_value = 1.61

[[record]]
residue_change = "chain 5 I2E"
quantity = "ratio to parent"
data_value = 1.39

[[record]]
residue_change = "chain 5 F5E"
quantity = "ratio to parent"
data_value = 0.937

[[record]]
residue_change = "chain 5 N4H"
quantity = "ratio to parent"
data_value = 1.04

